# assayed target: human ether-à-go-go-related gene (hERG) potassium channel (human, UniProt Q12809);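 further: peak tail current of the secondary pulse compared with the same well before compound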
# Sequence (Q12809 whole entry, looked up): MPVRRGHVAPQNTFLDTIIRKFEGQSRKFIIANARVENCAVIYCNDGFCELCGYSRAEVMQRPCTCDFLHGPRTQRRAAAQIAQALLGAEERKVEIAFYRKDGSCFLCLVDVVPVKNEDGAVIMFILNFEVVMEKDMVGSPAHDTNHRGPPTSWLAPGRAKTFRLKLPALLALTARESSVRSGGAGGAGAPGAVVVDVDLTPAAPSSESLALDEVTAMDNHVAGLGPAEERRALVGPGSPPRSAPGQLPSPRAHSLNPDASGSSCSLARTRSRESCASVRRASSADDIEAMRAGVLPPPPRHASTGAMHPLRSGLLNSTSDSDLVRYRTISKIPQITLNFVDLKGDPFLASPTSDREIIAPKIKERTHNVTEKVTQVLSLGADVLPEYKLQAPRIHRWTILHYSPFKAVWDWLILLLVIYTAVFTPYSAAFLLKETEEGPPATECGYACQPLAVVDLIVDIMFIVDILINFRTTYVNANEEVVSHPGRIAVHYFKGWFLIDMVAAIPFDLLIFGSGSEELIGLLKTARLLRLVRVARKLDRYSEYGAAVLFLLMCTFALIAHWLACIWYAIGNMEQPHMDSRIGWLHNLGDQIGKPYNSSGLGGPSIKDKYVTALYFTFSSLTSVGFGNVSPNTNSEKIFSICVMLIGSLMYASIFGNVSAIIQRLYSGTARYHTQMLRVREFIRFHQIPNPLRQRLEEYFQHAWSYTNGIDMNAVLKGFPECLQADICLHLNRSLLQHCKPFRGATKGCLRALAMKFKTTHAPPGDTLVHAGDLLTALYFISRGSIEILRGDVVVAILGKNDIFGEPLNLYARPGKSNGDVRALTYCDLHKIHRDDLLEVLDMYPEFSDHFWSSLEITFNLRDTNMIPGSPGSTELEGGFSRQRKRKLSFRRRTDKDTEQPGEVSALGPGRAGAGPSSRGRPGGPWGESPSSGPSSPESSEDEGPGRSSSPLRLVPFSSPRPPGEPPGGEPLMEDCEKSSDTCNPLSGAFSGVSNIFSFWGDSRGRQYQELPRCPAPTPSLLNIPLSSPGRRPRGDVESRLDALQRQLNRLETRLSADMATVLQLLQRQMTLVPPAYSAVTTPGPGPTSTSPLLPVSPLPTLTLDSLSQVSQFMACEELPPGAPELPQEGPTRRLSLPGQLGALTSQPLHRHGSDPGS
# protocol: primary screen, population patch clamp on CHO cells stably expressing hERG; higher = less effect of the substance
In all, about 310,000 compounds went through this assay and about 14,000 (4.5%) showed an effect of 50% or more. The effect is printed as a negative number. Many of the other results were omitted from the sample, so strong results are more common in it than they were.
Entry flag: 1.0 if hERG current change (%, negative = inhibition) at 10uM reaches -30%; 0.0 if it does not.

[[record]]
compound = "Cc1ccc(C2(c3ccccc3)NC(=O)N(CC(=O)NC3(C#N)CCCC3)C2=O)cc1C (stereo not drawn)"
class_assignment = 0.0

[[record]]
compound = "Cc1csc(SCCN2C(=O)c3ccccc3C2=O)n1"
class_assignment = 1.0

[[record]]
compound = "CCN(C(=O)CN1C(=O)NC(c2ccccc2)(c2ccc(C)c(C)c2)C1=O)C1CCCCC1 (stereo not drawn)"
class_assignment = 0.0

[[record]]
compound = "Cc1ccc(C2(c3ccccc3)NC(=O)N(CC(=O)N(C)C3CCS(=O)(=O)C3)C2=O)cc1C (stereo not drawn)"
class_assignment = 1.0

[[record]]
compound = "CCC1(c2ccccc2)NC(=O)N(CC(=O)NC2(C#N)CCCCC2)C1=O (stereo not drawn)"
class_assignment = 1.0

[[record]]
compound = "N#CC1(NC(=O)CN2C(=O)NC3(CCCCCC3)C2=O)CCCCC1"
class_assignment = 1.0

[[record]]
compound = "Cc1cc(NC(=O)CN2C(=O)NC(c3ccccc3)(c3ccc(C)c(C)c3)C2=O)no1 (stereo not drawn)"
class_assignment = 0.0

[[record]]
compound = "CCN(C(=O)CN1C(=O)NC(c2ccccc2)(c2ccc(C)c(C)c2)C1=O)C1CCS(=O)(=O)C1 (stereo not drawn)"
class_assignment = 0.0

[[record]]
compound = "N#CC1(NC(=O)CN2C(=O)NC(c3ccccc3)(c3ccccc3)C2=O)CCCC1"
class_assignment = 0.0


---

Catalogue of hERG current change (%, negative = inhibition) at 10uM readings, one per entry.
# assayed target: human ether-à-go-go-related gene (hERG) potassium channel (human, UniProt Q12809);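 further: peak tail current of the secondary pulse compared with the same well before compound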
# protocol: primary screen, population patch clamp on CHO cells stably expressing hERG; higher = less effect of the substance
Hit rate of the full screen: of about 310,000 compounds, about 14,000 (4.5%) showed an effect of 50% or more. The effect is printed as a negative number. For the sample, strong results were picked, then their nearest neighbours and some compounds at random.
property: hERG current change (%, negative = inhibition) at 10uM

[[record]]
compound = "CC(C)(C)c1ccc(OCC(=O)N(Cc2cccs2)C2CCS(=O)(=O)C2)cc1 (centres unmarked)"
result = "-54.2%"

[[record]]
compound = "O=C(COc1ccc(Br)cc1)N(Cc1cccs1)C1CCS(=O)(=O)C1 (centres unmarked)"
result = "-51.7%"

[[record]]
compound = "Cc1c(C(=O)N(Cc2cccs2)C2CCS(=O)(=O)C2)oc2ccccc12 (centres unmarked)"
result = "-50.2%"

[[record]]
compound = "Cc1ccc(C(=O)N(Cc2cccs2)C2CCS(=O)(=O)C2)cc1 (centres unmarked)"
result = "0.98%"

[[record]]
compound = "Cn1ccnc1SCC(=O)Nc1nc2ccccc2s1"
result = "-25.1%"


---

# assayed target: human ether-à-go-go-related gene (hERG) potassium channel (human, UniProt Q12809);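 further: peak tail current of the secondary pulse compared with the same well before compound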
# protocol: primary screen, population patch clamp on CHO cells stably expressing hERG; higher = less effect of the substance
Out of some 310,000 compounds screened, about 14,000 (4.5%) showed an effect of 50% or more. The effect is printed as a negative number. This is one part of a sample in which strong results are shown more often than they occur.
Catalogue of hERG current change (%, negative = inhibition) at 10uM readings, one per entry.
property: hERG current change (%, negative = inhibition) at 10uM (%)

[[record]]
compound = "c1ccc(Oc2nnc(-c3cccs3)c3ccccc23)cc1"
assayed_target = "human ether-à-go-go-related gene (hERG) potassium channel (human, UniProt Q12809)"
numeric_value = -5.87

[[record]]
compound = "CCOc1ccc(CCNC(=O)COC(=O)C2CC2)cc1OCC"
assayed_target = "human ether-à-go-go-related gene (hERG) potassium channel (human, UniProt Q12809)"
numeric_value = 3.41

[[record]]
compound = "Cn1cnc(S(=O)(=O)NCc2ccccc2)c1"
assayed_target = "human ether-à-go-go-related gene (hERG) potassium channel (human, UniProt Q12809)"
numeric_value = 2.77

[[record]]
compound = "CCOC(=O)c1cccc(NC(=O)CSc2nnc(COc3ccccc3)n2CC)c1"
assayed_target = "human ether-à-go-go-related gene (hERG) potassium channel (human, UniProt Q12809)"
numeric_value = -51.3

[[record]]
compound = "Cc1ccccc1C(=O)Nc1c(C(=O)N(CCN(C)C)Cc2ccco2)oc2ccccc12"
assayed_target = "human ether-à-go-go-related gene (hERG) potassium channel (human, UniProt Q12809)"
numeric_value = -79.7

[[record]]
compound = "COC(=O)c1cccc(NC(=O)CSc2nnc(COc3ccccc3)n2C)c1"
assayed_target = "human ether-à-go-go-related gene (hERG) potassium channel (human, UniProt Q12809)"
numeric_value = -7.84

[[record]]
compound = "Cc1ccccc1CNC(=O)C1CCN(c2nnc(N3CCCC3=O)s2)CC1"
assayed_target = "human ether-à-go-go-related gene (hERG) potassium channel (human, UniProt Q12809)"
numeric_value = 19.3

[[record]]
compound = "Cn1cc(C=C2C(=O)OC3(CCCCC3)OC2=O)c2ccccc21"
assayed_target = "human ether-à-go-go-related gene (hERG) potassium channel (human, UniProt Q12809)"
numeric_value = 9.19

[[record]]
compound = "Cc1cc(S(=O)(=O)Nc2ccc3c(c2)COC3=O)ccc1F"
assayed_target = "human ether-à-go-go-related gene (hERG) potassium channel (human, UniProt Q12809)"
numeric_value = 7.2

[[record]]
compound = "CCOC(=O)c1cccc(NC(=O)CSc2nnc(-c3ccncc3)n2CCCOC)c1"
assayed_target = "human ether-à-go-go-related gene (hERG) potassium channel (human, UniProt Q12809)"
numeric_value = -50.4

[[record]]
compound = "CCn1c(COc2cccc(C)c2)nnc1SCC(=O)Nc1cccc(C(=O)OC)c1"
assayed_target = "human ether-à-go-go-related gene (hERG) potassium channel (human, UniProt Q12809)"
numeric_value = -2.45

[[record]]
compound = "OCC1(Cc2ccc(F)cc2)CCCN(Cc2ccc(F)cc2Cl)C1 (centres unmarked)"
assayed_target = "human ether-à-go-go-related gene (hERG) potassium channel (human, UniProt Q12809)"
numeric_value = -2.59

[[record]]
compound = "COCCCn1c(SCC(=O)Nc2ccccc2)nnc1-c1ccncc1"
assayed_target = "human ether-à-go-go-related gene (hERG) potassium channel (human, UniProt Q12809)"
numeric_value = -6.82

[[record]]
compound = "Cc1cccc(C)c1NC(=O)/C(C#N)=C/c1ccsc1"
assayed_target = "human ether-à-go-go-related gene (hERG) potassium channel (human, UniProt Q12809)"
numeric_value = -13.2

[[record]]
compound = "CCOC(=O)c1oc2ccccc2c1NC(=O)c1ccccc1OC"
assayed_target = "human ether-à-go-go-related gene (hERG) potassium channel (human, UniProt Q12809)"
numeric_value = 16.6

[[record]]
compound = "COc1ccc(CN2CCCC(CO)(Cc3ccc(F)cc3)C2)cc1C (centres unmarked)"
assayed_target = "human ether-à-go-go-related gene (hERG) potassium channel (human, UniProt Q12809)"
numeric_value = -47.7

[[record]]
compound = "CCOc1ccc(/C=C/[N+](=O)[O-])c2ccccc12"
assayed_target = "human ether-à-go-go-related gene (hERG) potassium channel (human, UniProt Q12809)"
numeric_value = -8.67

[[record]]
compound = "Cc1ccc(S(=O)(=O)[N-]c2nc3ccccc3nc2-n2cc[n+](Cc3ccccc3)c2)cc1"
assayed_target = "human ether-à-go-go-related gene (hERG) potassium channel (human, UniProt Q12809)"
numeric_value = 11

[[record]]
compound = "COc1cc2c(OC(C)=O)c3c(c(-c4ccc5c(c4)OCO5)c2cc1OC)C(=O)OC3"
assayed_target = "human ether-à-go-go-related gene (hERG) potassium channel (human, UniProt Q12809)"
numeric_value = 15.4

[[record]]
compound = "N#Cc1ccc(OCc2nnc(SCC(=O)c3ccccc3)n2-c2ccccc2)cc1"
assayed_target = "human ether-à-go-go-related gene (hERG) potassium channel (human, UniProt Q12809)"
numeric_value = -40.8


---

Catalogue of hERG current change (%, negative = inhibition) at 10uM readings, one per entry.
# assayed target: human ether-à-go-go-related gene (hERG) potassium channel (human);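 further: peak tail current of the secondary pulse compared with the same well before compound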
# protocol: primary screen, population patch clamp on CHO cells stably expressing hERG; higher = less effect of the substance
In all, about 310,000 compounds went through this assay and about 14,000 (4.5%) showed an effect of 50% or more. Effects have a minus sign here. What follows is part of a selection rich in strong results, with near analogues and random picks from the rest.
property: hERG current change (%, negative = inhibition) at 10uM (%)

[[record]]
molecule = "Cc1cccc(NC(=O)C2CCC(CNC(=O)[C@@H]3Cc4ccccc4CN3)CC2)c1 (stereo partly drawn)"
unit_name = "%"
numeric_value = -2.36

[[record]]
molecule = "Cc1ccc(NC(=O)C2CCC(CNC(=O)[C@@H]3Cc4ccccc4CN3)CC2)cc1 (stereo partly drawn)"
unit_name = "%"
numeric_value = -25.8

[[record]]
molecule = "Br.CN1C(c2ccc(F)cc2)=CS/C1=C(/C#N)c1nnc(N2CCOCC2)n1-c1ccccc1"
unit_name = "%"
numeric_value = -23.8

[[record]]
molecule = "CC(Cc1ccccc1)NC(=O)c1cc([N+](=O)[O-])ccc1Cl (stereo not drawn)"
unit_name = "%"
numeric_value = -4.69

[[record]]
molecule = "CCc1ccc(NC(=O)C2CCN(C(=O)[C@@H]3Cc4ccccc4CN3)CC2)cc1"
unit_name = "%"
numeric_value = -59.5

[[record]]
molecule = "Cc1ccccc1C(=O)Nc1nnc(CC(=O)N/N=C/c2cn(Cc3ccccc3)c3ccccc23)s1"
unit_name = "%"
numeric_value = 12.6

[[record]]
molecule = "CCc1ccc(NC(=O)C2CCC(CNC(=O)[C@@H]3Cc4ccccc4CN3)CC2)cc1 (stereo partly drawn)"
unit_name = "%"
numeric_value = 4.23

[[record]]
molecule = "COc1ccc(NC(=O)C2CCN(C(=O)[C@@H]3Cc4ccccc4CN3)CC2)cc1"
unit_name = "%"
numeric_value = -38.2

[[record]]
molecule = "O=[N+]([O-])c1ccc2[nH]cc(S(=O)(=O)N3CCN(c4cccc(Cl)c4)CC3)c2c1"
unit_name = "%"
numeric_value = 16.3

